- Tested on: genotypes 1-6 of HCV, wild type
- run_description: Average over wild type HCV genotype assays (Table 2)
- Type: cell-based
- condition_description: Hepatitis C virus, arithmetic mean +/- SEM
property: EC50

{"molecule": "CC(C)OC(=O)[C@H](C)N[P@](=O)(OC[C@H]1O[C@@H](n2ccc(=O)[nH]c2=O)[C@](C)(F)[C@@H]1O)Oc1ccccc1 [sofosbuvir, reference compound]", "experimental_value": "117 nM"}
{"molecule": "CC(C)OC(=O)[C@H](C)NP(=O)(OC[C@H]1O[C@@H](n2ccc(=O)[nH]c2=O)[C@@](F)(Cl)[C@@H]1O)Oc1ccccc1 (some centres unmarked)", "experimental_value": "43 nM"}

###

- System: HCV GT1b S282T
- run_description: HCV GT1b S282T mutant replicon
- Format: cell-based
- condition_description: Hepatitis C virus, GT1B, read-out: EC50 HCV GT1b S282T
pEC50: −log10 of the molar value.
Listing of recorded pEC50 by entry.
property: pEC50

{"molecule": "CC(C)OC(=O)[C@H](C)NP(=O)(OC[C@H]1O[C@@H](n2ccc(=O)[nH]c2=O)[C@@](F)(Cl)[C@@H]1O)Oc1ccccc1 (some centres unmarked)", "property": "pEC50", "experimental_value": 6.53}
{"molecule": "CC(C)OC(=O)[C@H](C)N[P@](=O)(OC[C@H]1O[C@@H](n2ccc(=O)[nH]c2=O)[C@](C)(F)[C@@H]1O)Oc1ccccc1 [sofosbuvir, reference compound]", "property": "pEC50", "experimental_value": 6.13}

###

# EC50 per record follows
- System: HCV GT1b L159F/L320F
- run_description: HCV GT1b L159F/L320F mutant replicon
- Assay type: cell-based
- condition_description: Hepatitis C virus, GT1B, read-out: EC50 HCV GT1b L159F/L320F
property: EC50 (nM)

{"compound": "CC(C)OC(=O)[C@H](C)NP(=O)(OC[C@H]1O[C@@H](n2ccc(=O)[nH]c2=O)[C@@](F)(Cl)[C@@H]1O)Oc1ccccc1 (some centres unmarked) [Example 2]", "experimental_value": 70}
{"compound": "CC(C)OC(=O)[C@H](C)N[P@](=O)(OC[C@H]1O[C@@H](n2ccc(=O)[nH]c2=O)[C@](C)(F)[C@@H]1O)Oc1ccccc1 [sofosbuvir, reference compound]", "experimental_value": 199}

###

- tgt: HCV NS5B-21 (Hepatitis C virus genotype 1b (isolate Con1) (HCV))
- run_description: Enzyme assay, HCV NS5B-21 SPA (scintillation proximity assay)
- condition_description: triphosphates

{"compound": "Nc1ccn([C@@H]2O[C@H](COP(=O)(O)OP(=O)(O)OP(=O)(O)O)[C@@H](O)[C@]2(F)Cl)c(=O)n1", "IC50 (nM)": 89}
{"compound": "O=c1ccn([C@@H]2O[C@H](COP(=O)(O)OP(=O)(O)OP(=O)(O)O)[C@@H](O)[C@]2(F)Cl)c(=O)[nH]1 [Example 3, triphosphate]", "IC50 (nM)": 720}

###

- System: HCV GT3a L159F/L320F
- run_description: Genotype 3a transient replicon, L159F/L320F double mutant
- Format: cell-based
- condition_description: Hepatitis C virus, GT3A, read-out: EC50 HCV GT3a* L159F/L320F
pEC50: −log10 of the molar value.
property: pEC50

{"compound": "CC(C)OC(=O)[C@H](C)N[P@](=O)(OC[C@H]1O[C@@H](n2ccc(=O)[nH]c2=O)[C@](C)(F)[C@@H]1O)Oc1ccccc1 [sofosbuvir, reference compound]", "experimental_value": 6.72}
{"compound": "CC(C)OC(=O)[C@H](C)NP(=O)(OC[C@H]1O[C@@H](n2ccc(=O)[nH]c2=O)[C@@](F)(Cl)[C@@H]1O)Oc1ccccc1 (some centres unmarked)", "experimental_value": 7.21}
